- Test system: HEK-293T
- assay_details: Multiplex assay against HEK293T
- Format: toxicity, cell-based
- reported_conditions: human, 48 h, 10 µM, compound concentration 10 uM, replicate 2
Kindly return Satisfied if reported Population Fragmented Nuclei (%) is no lower than 7%; return Not satisfied if it is lower.

Here are 5 compounds together with their reported answers.
compound	cat
N#CCNC(=O)c1ccc(-c2ccnc(Nc3ccc(N4CCOCC4)cc3)n2)cc1	Satisfied
Cc1c(Nc2ccc(S(=O)(=O)N3CCN(C)CC3)cc2F)nc2ccc(-c3cnn(C4CC4)c3)cn2c1=O	Satisfied
CN(c1cc(C(F)(F)F)nc(OCCC(=O)O)n1)c1cccc2c1CCC2	Not satisfied
Cl.NC[C@@H]1O[C@H](C23CC4CC(CC(C4)C2)C3)Cc2c1ccc(O)c2O	Satisfied
CCCCCNC(=N)N/N=C/c1c[nH]c2ccc(OC)cc12.O=C(O)/C=C\C(=O)O [TEGASEROD MALEATE]	Satisfied

Check the entry `c1ccc(-c2oc3ncnc(NC[C@@H]4CCCO4)c3c2-c2ccccc2)cc1` : does Population Fragmented Nuclei (%) equal or exceed 7%? Not satisfied

Another compound to look at: `CC(C)c1cc(Nc2nc(N3CCC[C@H](N)C3)ncc2C(N)=O)cc(C(C)C)n1` Satisfied

Another compound to look at: CN1C(=O)[C@@H](NC(=O)c2cc3ccccc3[nH]2)N=C(c2ccccc2)c2ccccc21 [DEVAZEPIDE] Satisfied
